assay: Mammalian cell cytotoxicity assay, HEK293T (CellTiter-Glo, 72 h); settings: human, HEK293T cells
The entries below come with measured CC50 at 72 h values attached.

{"columns": ["MOLECULE", "CC50 at 72 h"],
 "data": [
  ["CC(=O)Nc1cccc(-n2c(=O)n(C3CC3)c(=O)c3c(Nc4ccc(I)cc4F)n(C)c(=O)c(C)c32)c1 [Trametinib dimethyl sulfoxide]", "> 9.95 µM"],
  ["Cc1cc(Nc2nc(C(O)c3ccc(F)cc3)nc3ccccc23)n[nH]1 (stereo not drawn)", "> 9.95 µM"],
  ["CCOC(=O)[C@H]1O[C@@H]1C(=O)N[C@@H](CC(C)C)C(=O)NCCC(C)C [aloxistatin, reference compound]", "> 9.95 µM"],
  ["Cc1cc(N)c2cc(NC(=O)Nc3ccc4nc(C)cc(N)c4c3)ccc2n1 [Aminoquinuride]", "> 9.95 µM"],
  ["CC[C@H](C(=O)N1CCCC[C@H]1C(=O)O[C@H](CCc1ccc(OC)c(OC)c1)c1cccc(OCC(=O)NCCNC(=O)COc2cccc([C@@H](CCc3ccc(OC)c(OC)c3)OC(=O)[C@@H]3CCCCN3C(=O)[C@@H](CC)c3cc(OC)c(OC)c(OC)c3)c2)c1)c1cc(OC)c(OC)c(OC)c1", "> 9.95 µM"]
]}

Prompt: Give reported CC50 at 72 h value for CNC(=O)[C@H](Cc1ccccc1)NC(=O)[C@H](CC(C)C)[C@H](CSc1cccs1)C(=O)NO
Response: > 9.95 µM
